test system: HOP-92 NSCLC; experiment: NCI tumour cell line growth inhibition, 48 h
The entries below are paired with their reported TGI.
PROPERTY: TGI

C=CC(C)(C)n1cc(C2=C3OC(=O)C(c4cn(C(C)(C)C=C)c5ccccc45)=C3OC2=O)c2ccccc21 : > 100 µM
CN1CCCC2C(c3ccccc3)C(C3=NCCCC3)C(c3ccccc3)CC21 (stereo unspecified) : > 100 µM
COC(=O)c1ccccc1/C=C1\Cc2c(C)c3c(c(C)c2C1=O)CCC3 : > 100 µM
COC(=O)C1=NC(=S)NC(c2ccccc2)C1c1nc2ccccc2s1 (stereo unspecified) : > 100 µM
CC(C)=CCC/C(=C/CC/C(C)=C/CCc1ccoc1)C(=O)O : > 100 µM
COc1cc2c(cc1C)NC(=O)/C2=C/c1cccnc1 : 41.9 µM

###

The entries below are paired with their reported TGI.
test system: NCI-H522 lung; test: NCI tumour cell line growth inhibition, 48 h
PROPERTY: TGI (µM)

Cc1c(N=Nc2ccccc2)c(-c2ccccc2)n(C2OC(CO)C(O)C(O)C2O)c(=S)c1C#N (stereo not given) : 14.1
O=[N+]([O-])/C(C(Cl)=C(Cl)Cl)=C1\Nc2ccc([N+](=O)[O-])cc2N1 : 63
O=C(N/N=C/c1cccc(O)c1O)c1ccccc1 : 2.25
O=C(c1cccc(O)c1O)c1cn(Cc2ccc(F)cc2)c2cccc(O)c12 : 8.08

###

The entries below are paired with their reported log10(TGI).
system: SF-539 CNS; test: NCI tumour cell line growth inhibition, 48 h
PROPERTY: log10(TGI) (log10 of the value in µM)

CC1CN1CC(O)C(O)CN1CC1C (configuration not stated) : 1.66
COc1cc2c(/C=C3/C(=O)Nc4ccc(O)cc43)c(Cl)n(Cc3ccccc3)c2cc1C : 0.58
Cc1ccc(/C(=C/C=C(C#N)C#N)Sc2ccc(Cl)cc2)cc1 : 0.74
CCN(CC)CCCC(C)Nc1c(C)cnc2cc(Cl)c(C)cc12 (configuration not stated) : 1.32
CCOc1cccc(C=Nc2ccccc2SSc2ccccc2N=Cc2cccc(OCC)c2O)c1O : 1.90
O=C(Nc1ccc(Cl)cc1)c1cc(-c2ccc(F)cc2)c2sc(=O)[nH]c2n1 : 0.76
O=C(CSc1ncccn1)N/N=C/c1ccccc1OCc1ccccc1 : 1.66
O=C1CC(Br)c2c(Br)sc(Br)c21 (configuration not stated) : 1.64
COc1ccc(OC)c(/C=C/C(=O)N/N=C/c2ccc(Cl)cc2)c1 : 1.05
COc1ccccc1C[C@@H]1OC2(C=CC(=O)CC2SC(=O)c2ccccc2)O[C@H]1Cc1ccccc1OC (some centres not stated) : 0.49
O=C1NC(=O)c2ccc([N+](=O)[O-])c3cccc1c23 : 1.50
CCN(CC)CCN1CC(O)=C(c2nc(-c3ccc(Cl)cc3)cs2)C1=N : 0.49
CN(CCC(=O)N1CC(CCl)c2ccc([N+](=O)[O-])cc21)CCC(=O)N1CC(CCl)c2ccc([N+](=O)[O-])cc21 (configuration not stated) : 1.44
C1=C(CC2=C[P+](c3ccccc3)(c3ccccc3)C=C(c3ccccc3)O2)OC(c2ccccc2)=C[P+]1(c1ccccc1)c1ccccc1 : 0.13
C[N+](C)(C)CC1CCCC(C[N+](C)(C)C)C1=O (configuration not stated) : 0.94
Cc1ccc2nc3c(C(=O)NCCN(C)C)cccc3nc2c1 : 1.20
CC(C)c1ccc(C(=O)Nc2sc3c(c2C(N)=O)CCC(=O)C3)cc1 : 0.17
CCN(CC)c1sc(N(CC)CC)c2c1SSSSS2 : 0.42

###

system: OVCAR-5 ovarian; assay: NCI tumour cell line growth inhibition, 48 h
PROPERTY: GI50

CCS(=O)(=O)c1ccc(OC)c(Nc2ncc(-c3cccc(OC)c3)o2)c1 : 9.03 µM
CCN(CC)CCCC(C)Nc1c(C)cnc2cc(Cl)c(C)cc12 (stereo not given) : 5.56 µM
O=C(Nc1ccc(Cl)cc1)c1cc(-c2ccc(F)cc2)c2sc(=O)[nH]c2n1 : 2.34 µM
N.N.N.N.N.O=C([O-])c1nn[n-]n1.[Cl-].[Co+3] : > 100 µM
COc1cc[nH]c1/C=C1\C(=O)Nc2ccccc21 : 15.3 µM
CC(=O)[CH-]C(=O)c1ccccc1.CC(=O)[CH-]C(=O)c1ccccc1.O=C([O-])c1ccc([O-])cc1.O=C([O-])c1ccc([O-])cc1.[Ti+4] : 74.5 µM
Cc1ccc(/C(=C/C=C(C#N)C#N)Sc2ccc(Cl)cc2)cc1 : 11.4 µM
NCCCC[C@@H]1NC(=O)[C@H]2CCCN2C(=O)[C@H](Cc2ccccc2)NC(=O)[C@H](Cc2ccccc2)CNC1=O : > 100 µM
CC(C)c1ccc(C(=O)Nc2sc3c(c2C(N)=O)CCC(=O)C3)cc1 : 1.16 µM
CCC[CH2][Sn]1([CH2]CCC)[O]C(=O)C(C(C)C)N=Cc2ccccc2[O]1 (stereo not given) : 1.61 µM

###

The entries below are paired with their reported TGI.
tested on: NCI-H460 lung; assay: NCI tumour cell line growth inhibition, 48 h
PROPERTY: TGI

COc1ccc(C(=O)c2cc(C)c(OC)c(C)c2)c(OC)c1N(C(=O)C(Cl)Cl)C(=O)C(Cl)Cl : 15.7 µM
COc1cc2oc(-c3ccc(O)cc3)cc(=O)c2c(OC)c1OC : > 100 µM
NCC(Cl)C(O)c1cnc(N)[nH]1 (stereo not drawn) : > 44.1 µM
c1ccc(C2=NNC3c4ccccc4-c4ccccc4N3C2)cc1 (stereo not drawn) : 53.3 µM
CC1=C(C)CC2(CCCCC2=O)S(=O)C1 (stereo not drawn) : > 100 µM
Cc1cn(C2OC(CO[Si](C)(C)C(C)(C)C)/C(=C\C#N)C2O[Si](C)(C)C(C)(C)C)c(=O)[nH]c1=O (stereo not drawn) : > 100 µM
CCOC(=O)C1(CO)CSCCSC1 : > 100 µM
C[N+](C)(C)CC1CCCC(C[N+](C)(C)C)C1=O (stereo not drawn) : 39.2 µM

###

test system: BT-549 breast; assay: NCI tumour cell line growth inhibition, 48 h
PROPERTY: GI50

COc1ccc(C(=O)COc2cccc(/C=C3\COc4ccc5ccccc5c4C3=O)c2)cc1 : 8.44 µM
Fc1cc(F)c(COc2cc(Cn3cnc4c(Cl)nc(Cl)nc43)ccc2C23CC4CC(CC(C4)C2)C3)cc1F : 11 µM
COc1ccc(OC)c(/C=C/C(=O)N/N=C/c2ccc(Cl)cc2)c1 : 1.17 µM
COc1cc(OC)c(/C=C/C(=O)c2c(OC)cccc2OC)c(OC)c1 : 0.3 µM

###

system: HCT-116 colon; assay: NCI tumour cell line growth inhibition, 48 h; in the data active = GI50 below about 0.43 µM; inactive = the rest
Classes used: active, inactive

CCC1(O)C(=O)OCc2c1cc1n(c2=O)Cc2cc3ccc(C=O)cc3nc2-1 (configuration not stated) : inactive
O=C(N/N=C/c1cccc(O)c1O)c1ccccc1 : active
CCCCN=C(N)c1ccc(OCCSCCOc2ccc(C(N)=NCCCC)cc2)cc1 : inactive
NC(=S)N/N=C/c1ccc(OC(=O)COc2ccc(Cl)cc2)cn1 : inactive
CCS(=O)(=O)c1ccc(OC)c(Nc2ncc(-c3cccc(OC)c3)o2)c1 : inactive
CC/C=C\C[C@@H]1C/C=C2/C(=O)C=C[C@H]2C/C=C\CCCC(=O)O1 : active
COc1ccc2c(c1)C(=O)c1c-2n(CCCn2ccnc2)c(=O)c2ccccc12 : active
CN(C)c1ccc(N)cc1 : inactive
CC(=O)OC1Oc2ccccc2-c2oc(=O)c(-c3cc4ccc(N(C)C)cc4oc3=O)cc21 (configuration not stated) : inactive
CCOC(=O)c1c(CN2CCN(c3ccccc3)CC2)n(-c2ccccc2)c2cc(Br)c(O)cc12 : inactive
CCOC(=O)Sc1ncnc2nc[nH]c12 : inactive
Cc1ccc(/C(=C/C=C(C#N)C#N)Sc2ccc(Cl)cc2)cc1 : inactive
CC(=O)[CH-]C(=O)c1ccccc1.CC(=O)[CH-]C(=O)c1ccccc1.O=C([O-])c1ccc([O-])cc1.O=C([O-])c1ccc([O-])cc1.[Ti+4] : inactive
CCN(CC)CCN1CC(O)=C(c2nc(-c3ccc(Cl)cc3)cs2)C1=N : inactive
O=C(Nc1ccc(Cl)cc1)c1cc(-c2ccc(F)cc2)c2sc(=O)[nH]c2n1 : inactive
COc1cc(NC(=O)c2cc(O)c(CC=C(C)C)c(O)c2)cc2c1O[C@]1(C)CC[C@@H](O)C(C)(C)[C@H]1C2 : inactive
CC1CN1CC(O)C(O)CN1CC1C (configuration not stated) : inactive

###

system: CAKI-1 renal; experiment: NCI tumour cell line growth inhibition, 48 h
The entries below are paired with their reported TGI.
PROPERTY: TGI

COc1cc(C(=O)NNC(=O)c2cc(Br)ccc2NC(=O)c2cccs2)cc(OC)c1OC : > 100 µM
CC1=C2C(=O)O[C@@H](c3ccoc3)[C@]2(C)CCC1 : > 100 µM
COc1ccc(NC(=S)Nc2cc(C)ccn2)cc1 : > 100 µM
Cc1noc(C)c1CCCOC1COc2ccccc2OCCOCCOc2ccccc2OC1 : > 100 µM
COc1ccc(C(=O)COc2cccc(/C=C3\COc4ccc5ccccc5c4C3=O)c2)cc1 : 78.3 µM
CC12Nc3c(Cl)cc(Cl)cc3N1C(=O)c1ccccc12 (stereo not drawn) : > 100 µM
O=C(O)c1cccc(Nc2c(C(=O)O)cccc2[N+](=O)[O-])c1 : > 100 µM
CC(C)(C)c1cc(S(=O)(=O)O)c2oc(-c3ccccc3)cc(=O)c2c1 : > 100 µM
COC(=O)c1ccccc1/C=C1\Cc2c(C)c3c(c(C)c2C1=O)CCC3 : > 100 µM
N#Cc1nc(C2OC(COC(=O)c3ccccc3)C(OC(=O)c3ccccc3)C2OC(=O)c2ccccc2)oc1N (stereo not drawn) : > 100 µM
O=c1[nH]c2cccc([N+](=O)[O-])c2c(=O)n1-c1ccc(Cl)cc1 : 19.5 µM
O=C1Cc2c([nH]c3ccc(Br)cc23)-c2cc(Br)ccc2N1 : > 100 µM
COc1cc2c(cc1C)NC(=O)/C2=C/c1cccnc1 : 30.3 µM
COc1ccc(N2C(=O)C3c4[nH]c5ccc(C)cc5c4C4CCC(C(C)(C)C)CC4C3C2=O)cc1 (stereo not drawn) : 23.7 µM
CCN1C(=O)CNc2ncc(-c3ccc(-c4ncn[nH]4)nc3C)nc21 : 0.576 µM
CC(=O)NC1C(OCc2ccccc2)OC(CO)C(O)C1OC(C)C(=O)NC(C(=O)NC(CCC(=O)NCCCC(=O)Nc1ccc2c(c1)CN1C(=O)c3ccccc3C1=N2)C(N)=O)C(C)C (stereo not drawn) : > 100 µM
COc1ccc2c(c1)C=C([N+](=O)[O-])C(C1OC(C)(C)OC1C1COC(C)(C)O1)O2 (stereo not drawn) : 13.9 µM
COC(=O)/C(C)=N/NC(=S)SC : > 100 µM
CC(C)(C)OC(=O)Cc1ccc2c(ccn2Cc2ccccc2)c1 : > 100 µM
COc1ccc(C(=O)c2cc(C)c(OC)c(C)c2)c(OC)c1N(C(=O)C(Cl)Cl)C(=O)C(Cl)Cl : > 100 µM
CC(C)CCCC(C)[C@H]1CC[C@H]2n3c(nnc3-c3ccccc3)CCC[C@]12C (stereo partly drawn) : 29.7 µM
O=C1c2ccccc2C(=O)C2NC(CCCCCSSCCCCCC3=NC4C(=O)c5ccccc5C(=O)C4N3)=NC12 (stereo not drawn) : > 100 µM
CSC1=N/C(=C\c2ccc(C)cc2)C(=O)N1 : > 100 µM
CCSc1nnc(Sc2c3ccccc3nc3ccccc23)s1 : 15.5 µM
COC(=O)C1=CC2C(=O)c3ccccc3C1(c1ccccc1)N2C1CCCCC1 (stereo not drawn) : 46.1 µM
OCC1OC(NC(=S)NCCC(F)(F)C(F)(F)C(F)(F)C(F)(F)C(F)(F)C(F)(F)F)C(O)C(O)C1O (stereo not drawn) : > 100 µM
NC(=O)NC1NC(=O)NC1=O (stereo not drawn) : > 100 µM
C/C(Cl)=N/OC(=O)Nc1ccc(F)c([N+](=O)[O-])c1 : 3.69 µM
NCC(Cl)C(O)c1cnc(N)[nH]1 (stereo not drawn) : 4.35 µM
O=C1c2c(Br)sc(Br)c2C(NC(=O)C(F)(F)F)C1O (stereo not drawn) : 31.4 µM
CC(=O)[CH-]C(=O)c1ccccc1.CC(=O)[CH-]C(=O)c1ccccc1.O=C([O-])c1ccc([O-])cc1.O=C([O-])c1ccc([O-])cc1.[Ti+4] : > 100 µM
N.N.N.N.N.O=C([O-])c1nn[n-]n1.[Cl-].[Co+3] : > 100 µM
CCS(=O)(=O)c1ccc(OC)c(Nc2ncc(-c3cccc(C(C)=O)c3)o2)c1 : > 25 µM
CCS(=O)(=O)c1ccc(OC)c(Nc2ncc(-c3cccc(OC)c3)o2)c1 : > 25 µM
COc1cc2oc(-c3ccc(O)cc3)cc(=O)c2c(OC)c1OC : > 100 µM
OC1=C2c3ccccc3NC2Oc2cc(F)ccc21 (stereo not drawn) : 48.4 µM
CC(C)N(C(=O)C12CC3CC(CC(C3)C1)C2)C(C)C : > 50 µM
CC1=CC[C@H](C[C@H](C#CCCCC2OCCO2)O[Si](C(C)C)(C(C)C)C(C)C)C(=O)CC1 : > 100 µM
COc1cc[nH]c1/C=C1\C(=O)Nc2ccccc21 : > 11.5 µM
Cc1cc(S(=O)(=O)Nc2nc(N)nc(N3N=CCC3C)n2)c(SCC(=O)O)cc1Cl (stereo not drawn) : > 10 µM
CC1CN1CC(O)C(O)CN1CC1C (stereo not drawn) : 4.54 µM
NCc1ccc(-c2ccc(CN)s2)s1 : > 100 µM
c1ccc(C2=NNC3c4ccccc4-c4ccccc4N3C2)cc1 (stereo not drawn) : > 100 µM
